- assay-text: Binding affinity towards D2-like dopamine receptor in caudate-putamen membranes of sprague-dawley rat brain by using [3H]spiperone as radioligand
- Type: cell membranes, Membrane
We begin with a simple list: items and their reported pKi.
# pKi = -log10(concentration in molar units)

Field: example entries. Status: answers known.
CCCCCN1CCC2=C(CCc3ccccc32)C1 = 7.34
O=C(NCCCCN1CCC2=C(CCc3ccccc32)C1)c1ccc2ccccc2c1 = 6.09
COc1ccccc1N1CCN(CCCCNC(=O)c2ccc3ccccc3c2)CC1 = 6.79
CCCCN1CCC2=C(CCc3ccccc32)C1 = 6.91
CCCN1CCC2=C(CCc3ccccc32)C1 = 7.08

Measured pKi, `c1ccc(CCCCN2CCC3=C(CCc4ccccc43)C2)cc1` : 7.23

The recorded pKi for `c1ccc(CCN2CCC3=C(CCc4ccccc43)C2)cc1` is 5.48
